test system: T24, DU-145 and MCF-7 human cancer cell lines; test: MTT cytotoxicity, 48 h, panel summary (range/selective index) over T24, DU-145, MCF-7 vs AG 1523; assay type: cell-based; settings: Homo sapiens; range over T24, DU-145, MCF-7; 48 h MTT; read-out: IC50 range in cancer cells
Readout: IC50

## Input Find the recorded IC50 belonging to COC(=O)c1c(C)ncc2c1C(=O)C(Br)=C(NC(CC(C)C)C(=O)OC)C2=O (stereo not shown) and report it.
## Output 500 to 670 nM

###

Record form. Attribute: pIC50. Fill in for each entry.
test system: MRC-5 normal human lung fibroblasts; experiment: MTT cytotoxicity assay, 72 h, normal human lung fibroblasts; assay type: cell-based; conditions: MRC5; normal human lung fibroblasts, MTT, 72 h exposure, six determinations; read-out: IC50 ± SEM MRC-5
Answers are plain numbers, as −log10 of the molar value.

# Molecule, pIC50
measured = [
    ("COC(=O)c1c(C)ncc2c1C(=O)C(N[C@H](Cc1ccccc1)C(=O)OC)=CC2=O [Compound 10b]", 5.75),
    ("COC(=O)c1c(C)ncc2c1C(=O)C(N[C@@H](Cc1ccc(O)cc1)C(=O)OC)=CC2=O", 5.43),
    ("COC(=O)c1c(C)ncc2c1C(=O)C(N[C@@H](CC(C)C)C(=O)OC)=CC2=O", 5.75),
]

// batch mode: one pIC50 value per listed entry
1. COC(=O)c1c(C)ncc2c1C(=O)C=C(N[C@H](C(=O)OC)C(C)C)C2=O
2. COC(=O)c1c(C)ncc2c1C(=O)C=C(N[C@@H](C)C(=O)OC)C2=O
3. COC(=O)c1c(C)ncc2c1C(=O)C=C(N[C@@H](Cc1ccccc1)C(=O)OC)C2=O

## Output
[5.31, 5.04, 5.17]

These entries and their values trace back to paper PMC6274474.
